Listed below: EC50, FRET short substrate values for each entry.
TARGET: BACE1 (HTRF long substrate and FRET short substrate assays of Example 9D)
PROTOCOL_TEXT: cell-based or functional assay
Give the value in nM but do not write nM after it.

Study these solved cases before continuing.
>>> value_observed("5571 (antibody, V domains shown, anti-BACE1 IgG) VH: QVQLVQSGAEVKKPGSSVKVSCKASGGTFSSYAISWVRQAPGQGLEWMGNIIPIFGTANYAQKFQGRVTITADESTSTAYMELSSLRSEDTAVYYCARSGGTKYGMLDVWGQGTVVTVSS VL: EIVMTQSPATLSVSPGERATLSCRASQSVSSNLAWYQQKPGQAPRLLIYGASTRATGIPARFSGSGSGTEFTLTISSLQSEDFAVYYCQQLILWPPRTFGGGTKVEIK")
0.417
>>> value_observed("5883 (antibody, V domains shown, anti-BACE1 IgG) VH: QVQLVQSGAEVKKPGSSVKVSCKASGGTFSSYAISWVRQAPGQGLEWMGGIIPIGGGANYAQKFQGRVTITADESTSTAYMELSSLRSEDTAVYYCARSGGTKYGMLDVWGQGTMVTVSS VL: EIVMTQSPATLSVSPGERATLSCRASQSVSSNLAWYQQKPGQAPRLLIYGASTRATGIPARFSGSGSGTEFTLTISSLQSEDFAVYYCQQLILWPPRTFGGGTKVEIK")
0.607

Now look at this entry.
// query Please give the documented EC50, FRET short substrate of 5644 (antibody, V domains shown, anti-BACE1 IgG) VH: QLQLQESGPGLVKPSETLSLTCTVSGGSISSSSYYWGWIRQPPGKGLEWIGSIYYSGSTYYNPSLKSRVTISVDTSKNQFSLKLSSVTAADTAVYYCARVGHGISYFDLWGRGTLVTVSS VL: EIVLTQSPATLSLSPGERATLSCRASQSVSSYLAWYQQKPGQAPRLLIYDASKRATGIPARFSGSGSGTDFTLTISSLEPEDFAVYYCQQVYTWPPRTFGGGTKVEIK
// result 8.47

The measurements presented in this section are drawn from patent US20180057604A1.
